I'd appreciate it if you could supply self-cleavage values for the items below.
B1: LINE1-full (parent)
chain: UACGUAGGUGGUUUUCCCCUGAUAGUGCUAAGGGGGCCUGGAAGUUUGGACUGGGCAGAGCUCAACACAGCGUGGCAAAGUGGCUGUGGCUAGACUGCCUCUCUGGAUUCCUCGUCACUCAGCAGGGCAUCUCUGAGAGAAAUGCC

- Variants of: B1
- TEST: self-cleavage, relative activity (ratio to wild type); higher = more cleavage; in vitro, sequencing; the parent is a self-cleaving ribozyme

Req: So what's the measured self-cleavage for this one? A42U U96C
Resp: 0.06

I would be grateful if you could provide self-cleavage for each of the following entries.
1. U52C U62G
2. U15A U81C
3. C37G U96G
4. A42G A94U
5. U62A A69U
6. U23C A121G

Resp:
0
1.14
0.07
0.21
0.05
2

Give one value of self-cleavage per listed variant.
1. U20C A117G
2. G34U U91C

Resp:
[1.59, 0.51]

Give self-cleavage for each of the items listed below.
1. G72U U143C
2. U26A A67U
3. C99G U112A
4. C37U A67U
5. U130A U143C

Resp:
1. 1.02
2. 0.03
3. 0.69
4. 0.08
5. 1.25

Each of the following entries comes with a recorded value; kindly state self-cleavage for each.
1. A78U G122A
2. U14C G106U
3. U104A U130C
4. A6G U87C

Resp:
1. 1.36
2. 0.66
3. 1.51
4. 0.15
